Molecular target: CgPK (Magallana gigas)
Construct: full-length CDS in pET-32a, 6xHis tags at N- and C-ends, expressed in E. coli; captured on CM5 chip by anti-His antibody
Experiment: SPR (BIAcore T200, CM5 chip, anti-His capture), […] Langmuir fit
Format: binding
Settings: PBS-P+ analyte buffer, running buffer HBS-EP+ pH 7.5; ADP 1.25-10 uM; mimics dephosphorylation
Readout kind: Kd (nM)
One number for each entry, in nM.

Would you kindly share the measured Kd for Nc1ncnc2c1ncn2[C@@H]1O[C@H](COP(=O)(O)OP(=O)(O)O)[C@@H](O)[C@H]1O ? 72.5

----------
Target: CgPK (Magallana gigas)
Construct: full-length CDS in pET-32a, 6xHis tags at N- and C-ends, expressed in E. coli; captured on CM5 chip by anti-His antibody
Test: SPR (BIAcore T200, CM5 chip, anti-His capture), […] Langmuir fit
Type: binding
Details: PBS-P+ analyte buffer, running buffer HBS-EP+ pH 7.5; ADP 1.25-10 uM; recombinant from E. coli
Readout kind: Kd (nM)
Answers are plain numbers, in nM.

Would you kindly share the measured Kd for Nc1ncnc2c1ncn2[C@@H]1O[C@H](COP(=O)(O)OP(=O)(O)O)[C@@H](O)[C@H]1O ? 41.7
